This listing pairs molecules with measured HLM (% Qh).
assay: human liver microsome (HLM) metabolic stability assay; format: in vitro ADME; settings: human liver microsomes; % hepatic blood flow calculated from t1/2

Worked examples follow.
input: Consider the molecule shown here: CCOc1c(C(=O)O)cnn1-c1cccc(-c2cccc(Cl)c2OCc2ccc3c(c2)CCN(C2COC2)C3)n1 [Compound 51] What is its recorded HLM (% Qh)?
output: <24 % Qh

input: Consider the molecule shown here: COc1c(C(=O)O)cnn1-c1cccc(-c2cccc(C)c2OCc2ccc3c(c2C)CCN(C[C@@H]2CCCO2)CC3)n1 [Compound 223] What is its recorded HLM (% Qh)?
output: <24 % Qh

input: Consider the molecule shown here: Cc1cccc(-c2cccc(-n3ncc(C(=O)O)c3OC(C)C)n2)c1OCc1ccc2c(c1C)CCN([C@@H]1CCCOC1)C2 [Compound 116] What is its recorded HLM (% Qh)?
output: <24 % Qh

***
input: Consider the molecule shown here: CCOc1c(C(=O)O)cnn1-c1cccc(-c2cccc(C)c2OCc2ccc3c(c2C)CCN(C[C@@H]2CCO2)CC3)n1 [Compound 228] What is its recorded HLM (% Qh)?
output: 44 % Qh

# credit: patent US8906904B2
